Reported pIC50 for target or system Poly [ADP-ribose] polymerase 2 (Homo sapiens, UniProt Q9UGN5), by entry.
Answers are plain numbers, as −log10 of the molar value.

These solved cases illustrate the format of a correct answer.
O=C1NCCn2c(-c3ccc(N4CCNCC4)cc3)nc3cncc1c32    8.26
CC(C)CN1CCC(c2nc3cncc4c3n2CCNC4=O)CC1    8.11

Shifting focus to the molecule that follows.
Ask | What value of pIC50 has been reported for the following molecule? CCNCc1ccc(-c2nc3cncc4c3n2CCNC4=O)cc1
Reply | 8.00

---

Reported pIC50 for target or system UniProt:P09874, by entry.
Sequence (P09874 whole entry): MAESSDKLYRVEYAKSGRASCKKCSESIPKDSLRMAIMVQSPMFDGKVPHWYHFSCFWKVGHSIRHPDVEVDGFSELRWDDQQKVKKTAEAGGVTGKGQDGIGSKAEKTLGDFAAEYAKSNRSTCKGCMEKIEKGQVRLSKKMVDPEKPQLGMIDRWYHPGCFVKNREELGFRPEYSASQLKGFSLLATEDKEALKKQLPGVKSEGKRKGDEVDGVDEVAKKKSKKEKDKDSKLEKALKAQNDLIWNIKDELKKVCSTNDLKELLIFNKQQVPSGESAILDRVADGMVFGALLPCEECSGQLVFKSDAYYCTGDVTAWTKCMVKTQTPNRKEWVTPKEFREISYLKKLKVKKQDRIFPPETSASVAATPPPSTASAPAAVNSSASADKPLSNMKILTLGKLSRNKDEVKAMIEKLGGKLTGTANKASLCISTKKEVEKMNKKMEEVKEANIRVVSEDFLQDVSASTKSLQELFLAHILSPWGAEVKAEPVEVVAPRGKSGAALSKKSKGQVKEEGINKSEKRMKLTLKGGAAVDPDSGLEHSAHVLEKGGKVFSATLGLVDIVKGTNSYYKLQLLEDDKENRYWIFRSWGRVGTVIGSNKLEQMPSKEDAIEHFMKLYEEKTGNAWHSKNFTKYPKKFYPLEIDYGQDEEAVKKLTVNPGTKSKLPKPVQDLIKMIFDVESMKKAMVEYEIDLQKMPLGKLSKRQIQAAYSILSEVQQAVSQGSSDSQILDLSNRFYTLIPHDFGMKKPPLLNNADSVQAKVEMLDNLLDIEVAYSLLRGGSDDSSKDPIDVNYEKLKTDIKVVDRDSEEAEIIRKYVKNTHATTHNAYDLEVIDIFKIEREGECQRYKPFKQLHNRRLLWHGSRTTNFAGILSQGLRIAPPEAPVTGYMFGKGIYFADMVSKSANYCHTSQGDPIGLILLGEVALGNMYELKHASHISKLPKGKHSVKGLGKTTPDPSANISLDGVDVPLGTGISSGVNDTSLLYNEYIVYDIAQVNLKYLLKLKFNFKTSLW
Give bare numbers, as −log10 of the molar value.

These solved cases illustrate the format of a correct answer.
O=C1NCCn2c(-c3ccccc3)nc3cncc1c32    6.96
O=C1NCCn2c(C3CCN(Cc4ccccc4)CC3)nc3cncc1c32    6.99
O=C1NCCn2c(-c3ccc(CN4CCCC4)cc3)nc3cncc1c32    7.70
CCNCc1ccc(-c2nc3cncc4c3n2CCNC4=O)cc1    7.96

Shifting focus to the compound that follows.
Ask | What value of pIC50 has been reported for the following compound? CN(C)Cc1ccc(-c2nc3cncc4c3n2CCNC4=O)cc1
Reply | 7.55
